Origin of the recorded values: ChEMBL document CHEMBL1153098

Assay: Selectivity index, ratio of IC50 for PI3Kalpha to IC50 for mTOR
MEASURED QUANTITY: Ratio IC50

Consider the reported Ratio IC50 for these compounds:
1) CS(=O)(=O)N1CCN(Cc2cc3nc(-c4ccc(NC(=O)NC5CC5)cc4)nc(N4CC5CCC(C4)O5)c3s2)CC1 ... 176
2) CN1CCN(Cc2cc3nc(-c4ccc(NC(=O)NC5CC5)cc4)nc(N4CC5CCC(C4)O5)c3s2)CC1 ... 56
3) CNC(=O)Nc1ccc(-c2nc(N3CC4CCC(C3)O4)c3sc(CN4CCN(S(C)(=O)=O)CC4)cc3n2)cc1 ... 33

a: COC(=O)Nc1ccc(-c2nc(N3CC4CCC(C3)O4)c3sccc3n2)cc1
b: CS(=O)(=O)N1CCN(Cc2cc3nc(-c4ccc(NC(=O)Nc5ccncc5)cc4)nc(N4CC5CCC(C4)O5)c3s2)CC1
c: CN1CCN(Cc2cc3nc(-c4ccc(NC(=O)Nc5cccnc5)cc4)nc(N4CC5CCC(C4)O5)c3s2)CC1
d: O=C(Nc1ccncc1)Nc1ccc(-c2nc(N3CC4CCC(C3)O4)c3sccc3n2)cc1
Prompt: Sequence the entries by Ratio IC50, beginning with the highest number. Response format: the labels, sorted as the prompt asks.
Completion: a, d, c, b
